- system under test: GABARAPL2 (Homo sapiens, UniProt P60520)
- Construct: GABARAPL2_ATG8__P60520_2_115; GST (cleaved yes); made in house; host or cells: Escherichia coli BL21-Gold(DE3)
- Sequence (P60520 2-115): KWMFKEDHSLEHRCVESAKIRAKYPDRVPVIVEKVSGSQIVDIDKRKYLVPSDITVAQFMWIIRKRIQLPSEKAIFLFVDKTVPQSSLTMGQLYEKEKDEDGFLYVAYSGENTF
- test name: FP displacement assay, GABARAPL2
- Format: binding
- experimental conditions: read-out: KD values ± SEM
quantity kind: Kd
Output should be the measured figure followed by the unit it is expressed in.

[in] Provide GABARAPL2 (Homo sapiens, UniProt P60520) Kd reading for CC(=O)N[C@@H](CC(C)C)C(=O)N[C@@H](CCC(=O)O)C(=O)N[C@@H](CC(=O)O)C(=O)N[C@@H](CC(=O)O)C(=O)N[C@@H](CCC(=O)O)C(=O)N[C@@H](CCC(N)=O)C(=O)N[C@@H](Cc1ccccc1)C(=O)N[C@H](C(=O)N[C@@H](CCC(=O)O)C(=O)N[C@@H](CC(C)C)C(=O)N[C@@H](Cc1ccc(O)cc1)C(=O)NCC(=O)N[C@H](C(=O)N[C@@H](CCC(=O)O)C(=O)N[C@@H](CCC(=O)O)C(=O)N[C@@H](Cc1ccc(O)cc1)C(N)=O)[C@@H](C)O)C(C)C [TBK1_164–179 E] .
[out] 12.4 µM

====

Residues, ends and D or L forms follow the SMILES beside them.
Below are compounds with their Kd as measured on MAP1LC3A (Homo sapiens, UniProt Q9H492).
One number for each entry, in µM.

Consider the following illustrative entries.
{"columns": ["compound", "system under test", "Kd, µM"],
 "data": [
  ["CC(=O)N[C@@H](Cc1ccc(O)cc1)C(=O)N[C@@H](CCCCN)C(=O)N[C@@H](CCCCN)C(=O)N[C@@H](CCC(N)=O)C(=O)N[C@@H](CC(C)C)C(=O)N[C@@H](CCCCN)C(=O)N[C@@H](CCCNC(=N)N)C(=O)N[C@@H](Cc1ccccc1)C(=O)N[C@@H](CCC(=O)O)C(=O)N[C@H](C(=O)N[C@@H](CCC(=O)O)C(=O)N[C@@H](CCC(=O)O)C(=O)N[C@@H](Cc1ccccc1)C(=O)N[C@H](C(=O)N[C@@H](CC(C)C)C(=O)N[C@@H](CC(C)C)C(=O)O)C(C)C)[C@@H](C)O [ATG4C444–458 E] (Ac-YKKQLKRFETEEFVLL-OH)", "MAP1LC3A (Homo sapiens, UniProt Q9H492)", 3.1],
  ["CC(=O)N[C@@H](Cc1ccc(O)cc1)C(=O)N[C@@H](CCCCN)C(=O)N[C@@H](CCCCN)C(=O)N[C@@H](CCC(N)=O)C(=O)N[C@@H](CC(C)C)C(=O)N[C@@H](CCCCN)C(=O)N[C@@H](CCCNC(=N)N)C(=O)N[C@@H](Cc1ccccc1)C(=O)N[C@@H](CO)C(=O)N[C@H](C(=O)N[C@@H](CCC(=O)O)C(=O)N[C@@H](CCC(=O)O)C(=O)N[C@@H](Cc1ccccc1)C(=O)N[C@H](C(=O)N[C@@H](CC(C)C)C(=O)N[C@@H](CC(C)C)C(=O)O)C(C)C)[C@@H](C)O", "MAP1LC3A (Homo sapiens, UniProt Q9H492)", 5.2],
  ["CC(=O)N[C@@H](CCC(N)=O)C(=O)N[C@@H](CC(N)=O)C(=O)N[C@@H](CC(C)C)C(=O)N[C@@H](CO)C(=O)N[C@@H](CCCNC(=N)N)C(=O)N[C@@H](CCC(=O)O)C(=O)N[C@@H](Cc1c[nH]c2ccccc12)C(=O)N[C@@H](Cc1c[nH]cn1)C(=O)N[C@@H](CC(=O)O)C(=O)N[C@H](C(=O)N[C@@H](CCC(N)=O)C(=O)N[C@H](C(=O)N[C@@H](CO)C(=O)N[C@@H](CO)C(=O)N[C@@H](C)C(=O)N[C@@H](Cc1ccc(O)cc1)C(N)=O)C(C)C)C(C)C [TPD52L2_91–106 E] (Ac-QNLSREWHDVQVSSAY-NH2)", "MAP1LC3A (Homo sapiens, UniProt Q9H492)", 78]
]}

[in] Name the recorded Kd of the compound listed here: CC(=O)N[C@@H](Cc1ccc(O)cc1)C(=O)N[C@@H](CCCCN)C(=O)N[C@@H](CCCCN)C(=O)N[C@@H](CCC(N)=O)C(=O)N[C@@H](CC(C)C)C(=O)N[C@@H](CCCCN)C(=O)N[C@@H](CCCNC(=N)N)C(=O)N[C@@H](Cc1ccccc1)C(=O)N[C@@H](COP(=O)(O)O)C(=O)N[C@H](C(=O)N[C@@H](CCC(=O)O)C(=O)N[C@@H](CCC(=O)O)C(=O)N[C@@H](Cc1ccccc1)C(=O)N[C@H](C(=O)N[C@@H](CC(C)C)C(=O)N[C@@H](CC(C)C)C(=O)O)C(C)C)[C@@H](C)O
[out] 1.3

====

- system under test: GGA1 VHS (Homo sapiens)
- Construct: GGA1_VHS__Q9UJY5_1_157; GST (cleaved yes); made in house; host or cells: Escherichia coli BL21-Gold(DE3)
- Sequence (Q9UJY5 1-157): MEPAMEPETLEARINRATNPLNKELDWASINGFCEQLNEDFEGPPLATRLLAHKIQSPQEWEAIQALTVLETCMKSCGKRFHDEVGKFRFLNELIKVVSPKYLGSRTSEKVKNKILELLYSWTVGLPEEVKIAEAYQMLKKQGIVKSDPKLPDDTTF
- test name: FP displacement assay, GGA1 VHS
- Assay type: binding
- experimental conditions: FP displacement, probe FITC-IGF2R 5 nM, 50 mM sodium phosphate pH 7.4, room temperature; at least three technical replicates; read-out: KD values ± SEM
pKd: −log10 of the molar value. Non-standard residues stand in square brackets, D forms with d. Residues, ends and D or L forms follow the SMILES beside them. pS = N[C@@H](COP(=O)(O)O)C(=O)O
Threshold check on pKd: at or above 4 gives Yes, strictly below gives No.

Record excerpt, results attached:
{"columns": ["compound", "answer label"],
 "data": [
  ["CC(=O)N[C@@H](CC(=O)O)C(=O)N[C@@H](CC(C)C)C(=O)N[C@@H](CC(C)C)C(=O)N[C@@H](CCC(=O)O)C(=O)N[C@@H](CO)C(=O)N1CCC[C@H]1C(=O)N[C@@H](CC(=O)O)C(=O)N[C@H](C(=O)NCC(=O)N[C@@H](CC(C)C)C(=O)N[C@@H](CC(C)C)C(=O)N[C@@H](CCCCN)C(=O)N[C@@H](CC(C)C)C(=O)N[C@@H](C)C(=O)N[C@@H](CO)C(=O)N[C@@H](Cc1ccc(O)cc1)C(N)=O)C(C)C [JUN59–73 E] (Ac-DLLESPDVGLLKLASY-NH2)", "No"],
  ["CC(=O)N[C@@H](CCC(=O)O)C(=O)N[C@H](C(=O)N[C@@H](Cc1ccc(O)cc1)C(=O)N[C@@H](Cc1ccc(O)cc1)C(=O)N[C@@H](CC(C)C)C(=O)N[C@@H](CO)C(=O)N[C@@H](CC(=O)O)C(=O)N[C@@H](CCC(=O)O)C(=O)N1CCC[C@H]1C(=O)N[C@@H](CC(C)C)C(=O)N[C@@H](CC(C)C)C(=O)NCC(=O)N1CCC[C@H]1C(=O)N1CCC[C@H]1C(=O)N[C@H](C(=O)NCC(N)=O)C(C)C)[C@@H](C)O [GTSE1_145–160 E] (Ac-ETYYLSDEPLLGPPVG-NH2)", "No"]
]}

[in] Reported pKd at or above 4? CC[C@H](C)[C@H](NC(=O)[C@H](CC(=O)O)NC(=O)[C@H](CC(=O)O)NC(=O)[C@H](CO)NC(=O)[C@@H](NC(=O)[C@@H]1CCCN1C(=O)[C@H](CO)NC(=O)[C@H](CCCCN)NC(=O)[C@H](Cc1ccc(O)cc1)NC(C)=O)[C@@H](C)O)C(=O)N[C@@H](COP(=O)(O)O)C(=O)N[C@@H](CC(C)C)C(=O)N[C@@H](CC(C)C)C(=O)N[C@@H](Cc1c[nH]cn1)C(=O)N[C@@H](CCC(=O)O)C(=O)N[C@@H](CO)C(=O)N[C@@H](CCC(N)=O)C(=O)N[C@@H](CO)C(N)=O [RNF11_6–21 pS] (Ac-YKSPTSDDI[pS]LLHESQS-NH2)
[out] Yes

[in] Reported pKd at or above 4? CC[C@H](C)[C@H](NC(=O)[C@H](CC(=O)O)NC(=O)[C@H](CC(=O)O)NC(=O)[C@H](CO)NC(=O)[C@@H](NC(=O)[C@@H]1CCCN1C(=O)[C@H](CO)NC(=O)[C@H](CCCCN)NC(=O)[C@H](Cc1ccc(O)cc1)NC(C)=O)[C@@H](C)O)C(=O)N[C@@H](CCC(=O)O)C(=O)N[C@@H](CC(C)C)C(=O)N[C@@H](CC(C)C)C(=O)N[C@@H](Cc1c[nH]cn1)C(=O)N[C@@H](CCC(=O)O)C(=O)N[C@@H](CO)C(=O)N[C@@H](CCC(N)=O)C(=O)N[C@@H](CO)C(N)=O [RNF11_6–21 E] (Ac-YKSPTSDDIELLHESQS-NH2)
[out] No
